Test system: SB.msgc-1
Assay: area under the dose-response curve of % viability (trapezoidal, 11 doses) (% viability x log10 concentration); higher = less cytotoxic
Conditions: SB.msgc-1 (sporadic gastric cancer)
I would appreciate it if you labelled entries rule met when area under the dose-response curve is 500 or higher, otherwise rule not met.

Example entries and their recorded answers appear below.
{"compound": "COC/1=C/C=C2\\C(=C/C1=O)[C@H](CCC3=CC(=C(OC)C(=C23)OC)OC)NC(C)=O [Colchicine] (top concentration 46.0829 µM)", "assigned-label": "rule not met"}
{"compound": "Cc1ccc([C@@H]2O[C@H](CO)[C@@H](O)[C@H](O)[C@H]2O)cc1Cc1ccc(-c2ccc(F)cc2)s1 [Canagliflozin] (top concentration 46.0829 µM)", "assigned-label": "rule met"}
{"compound": "CC1(C)CNc2cc(NC(=O)c3cccnc3NCc3ccncc3)ccc21 [Motesanib] (top concentration 46.0829 µM)", "assigned-label": "rule not met"}
{"compound": "C[C@@H]1C[C@H]2[C@@H]3\\C=C(C)/C4=C/C5=C(C[C@]4(C)[C@H]3[C@@H](O)C[C@]2(C)[C@@]1(O)C(=O)COC(C)=O)C=N[N]5C6=CC=CC=C6 [Cortivazol] (top concentration 46.0829 µM)", "assigned-label": "rule not met"}
{"compound": "C=CC[C@@H]1/C=C(\\C)C[C@H](C)C[C@H](OC)[C@H]2O[C@@](O)(C(=O)C(=O)N3CCCC[C@H]3C(=O)O[C@H](/C(C)=C/[C@@H]3CC[C@@H](O)[C@H](OC)C3)[C@H](C)[C@@H](O)CC1=O)[C@H](C)C[C@@H]2OC [FK-506] (top concentration 46.0829 µM)", "assigned-label": "rule met"}

In: Check the entry c1cc(-c2cnn3cc(-c4ccc(OCCN5CCCCC5)cc4)cnc23)ccn1 [Dorsomorphin] (top concentration 46.0829 µM) : does area under the dose-response curve equal or exceed 500?
Out: rule not met

In: What would you report for O=C(O)c1ccc(-n2nc(-c3ccccc3O)nc2-c2ccccc2O)cc1 [Deferasirox] (top concentration 46.0829 µM) ?
Out: rule not met

----------
Test system: SB.mhdgc-1
Experiment: area under the dose-response curve of % viability (trapezoidal, 11 doses) (% viability x log10 concentration); higher = less cytotoxic
Conditions: SB.mhdgc-1 (hereditary c.1380delA CDH1 gastric cancer)
measure-name: area under the dose-response curve
Reply briefly: the number, and no unit.

Example molecules with recorded area under the dose-response curve:
{"molecule": "CNC(=O)c1cc(Oc2ccc(NC(=O)Nc3cc(C(C)(C)C)nn3-c3ccc4ncccc4c3)c(F)c2)ccn1 [DCC-2036] (top concentration 46.0829 µM)", "assay-system": "SB.mhdgc-1", "measure-name": "area under the dose-response curve", "meas-value": 421}
{"molecule": "C\\C1=C(\\C=C(\\C#N)C(=O)N1)C2=CC=NC=C2 [Milrinone] (top concentration 46.0829 µM)", "assay-system": "SB.mhdgc-1", "measure-name": "area under the dose-response curve", "meas-value": 544}
{"molecule": "CC[C@H](/C=C/[C@@H](C)[C@H]1CC[C@H]2[C@@H]3CC=C4C[C@@H](O)CC[C@]4(C)[C@H]3CC[C@]12C)C(C)C [Stigmasterol] (top concentration 23.0415 µM)", "assay-system": "SB.mhdgc-1", "measure-name": "area under the dose-response curve", "meas-value": 449}
{"molecule": "COC1=C(CC=C(C)C)C2=C(\\C=C/C(=O)O2)C=C1 [Osthol] (top concentration 46.0829 µM)", "assay-system": "SB.mhdgc-1", "measure-name": "area under the dose-response curve", "meas-value": 464}
{"molecule": "CCCCCN(C)CCC(O)(P(=O)([O-])O)P(=O)(O)O [Ibandronate sodium hydrate] (top concentration 46.0829 µM)", "assay-system": "SB.mhdgc-1", "measure-name": "area under the dose-response curve", "meas-value": 468}

Next up:
In: Requested field: area under the dose-response curve. Item: CC1=CC=C(C=C1)N(C\C2=N\CCN2)C3=CC=CC(=C3)O [Phentolamine mesilate] (top concentration 46.0829 µM)
Out: 532

----------
System: SB.msgc-1
Assay: AC50 for growth inhibition (viability) (log10 M); higher = less potent
Conditions: SB.msgc-1 (sporadic gastric cancer)
Decide using AC50 for growth inhibition (log10 M) alone. Strictly below -6: True. Equal to or above -6: False.

Example entries and their recorded answers appear below.
{"molecule": "C=CCO/N=C(/C[C@H]1O[C@@H]2O[C@]3(C)CC[C@H]4[C@H](C)CC[C@@H]([C@H]1C)[C@@]24OO3)[C@H]1O[C@@H]2O[C@]3(C)CC[C@H]4[C@H](C)CC[C@@H]([C@H]1C)[C@@]24OO3", "assigned-label": "True"}
{"molecule": "C=CCn1c(=O)c2cnc(Nc3ccc(N4CCN(C)CC4)cc3)nc2n1-c1cccc(C(C)(C)O)n1", "assigned-label": "True"}

In: Confirm or reject: AC50 for growth inhibition (log10 M) of `CC(=O)N1CCN(c2ccc(OCc3nn(C)c(C)c3-c3cccc4c(CCCOc5cccc6ccccc56)c(C(=O)O)n(Cc5cccnc5)c34)cc2)CC1` lies strictly below -6
Out: False

In: What would you report for `O=C(CC12CC3CC(CC(C3)C1)C2)Nc1cccc2nc(NCCNCCO)ccc12` ?
Out: False

In: What would you report for `C[C@@]12OC(=O)[C@@]1(NC(=O)[C@@H]2CCCl)[C@@H](O)[C@H]\3CCC\C=C3` ?
Out: True

In: What would you report for `CCc1nc(-c2cccc(C)c2)c(-c2ccnc(NC(=O)c3ccccc3)c2)s1` ?
Out: False

In: What would you report for `Cc1cccc(/C=N/Nc2cc(N3CCOCC3)nc(OCCc3ccccn3)n2)c1` ?
Out: False

----------
Test system: SB.mhdgc-1
Assay: viability at highest tested concentration (MAXR) relative to DMSO; higher = less cytotoxic
Conditions: SB.mhdgc-1 (hereditary c.1380delA CDH1 gastric cancer)
Here the recorded viability is given for each entry.
Entry rule: numbers only, all in %.

In: Requested field: viability. Item: COC(=O)N1CCN(Cc2cccc(NC(=O)Nc3ccc(C)nc3)c2F)CC1 [Omecamtiv mecarbil] (top concentration 46.0829 µM)
Out: 63.7

In: What would you report for COc1ccc(-c2ccc3c(N4CCOCC4)nc(N4C[C@@H](C)O[C@@H](C)C4)nc3n2)cc1CO (top concentration 46.0829 µM) ?
Out: 43.4

In: What would you report for C=C[C@H]1CN2CCC1C[C@@H]2C(O)c1ccnc2ccc(OC)cc12 (stereo partly drawn) [Quinidine] (top concentration 46.0829 µM) ?
Out: 75.6

----------
Test system: SB.mhdgc-1
Assay: area under the dose-response curve of % viability (trapezoidal, 11 doses) (% viability x log10 concentration); higher = less cytotoxic
Settings: SB.mhdgc-1 (hereditary c.1380delA CDH1 gastric cancer)
measure-name: area under the dose-response curve
Reply briefly: the number, and no unit.

Example molecules with recorded area under the dose-response curve:
{"molecule": "O=C(Nc1cc(C(F)(F)F)cc(C(F)(F)F)c1)c1cc(Cl)ccc1O [IMD-0354] (top concentration 46.0829 µM)", "assay-system": "SB.mhdgc-1", "area under the dose-response curve": 320}
{"molecule": "C[C@H](NC(=O)c1sccc1OCc1ccc(Cl)cc1)c1ccccc1 (top concentration 46.0829 µM)", "assay-system": "SB.mhdgc-1", "area under the dose-response curve": 435}
{"molecule": "C[N+]1(C)[C@@H]2C[C@@H](OC(=O)[C@H](CO)c3ccccc3)C[C@H]1[C@@H]1O[C@@H]12.[Br-] [Methscopolamine bromide] (top concentration 46.0829 µM)", "assay-system": "SB.mhdgc-1", "area under the dose-response curve": 496}
{"molecule": "COc1nc(N)nc2c1ncn2[C@@H]1O[C@H](CO)[C@@H](O)[C@@H]1O [Nelarabine] (top concentration 46.0829 µM)", "assay-system": "SB.mhdgc-1", "area under the dose-response curve": 504}
{"molecule": "O=C1\\C=C(/OC2=C1C=CC=C2C3=CC=CC=C3)N4CCOCC4 (top concentration 46.0829 µM)", "assay-system": "SB.mhdgc-1", "area under the dose-response curve": 436}
{"molecule": "Cc1cnc(-c2cc(N3CCN(C(=O)CC[S+](C)(=O)[O-])CC3)ncc2Cl)c(C)c1 (top concentration 46.0829 µM)", "assay-system": "SB.mhdgc-1", "area under the dose-response curve": 447}

In: Requested field: area under the dose-response curve. Item: CC(C)c1c(C(=O)Nc2ccccc2)c(-c2ccccc2)c(-c2ccc(F)cc2)n1CC[C@@H](O)C[C@@H](O)CC(=O)[O-] [Atorvastatin calcium] (top concentration 46.0829 µM)
Out: 510

In: What would you report for O[C@@H]1[C@@H](O)[C@H](O[C@@H]([C@H]1O)C(O)=O)OC2=C(O)C(=C3C(=O)\C=C(/OC3=C2)C4=CC=CC=C4)O [Baicalin] (top concentration 46.0829 µM) ?
Out: 578

In: What would you report for O=C(NCc1ccccc1)c1csc(Nc2ccncn2)n1 [Thiazovivin] (top concentration 46.0829 µM) ?
Out: 413

In: What would you report for CNC(=O)[C@H](Cc1ccccc1)NC(=O)[C@H](CC(C)C)[C@H](CSc1cccs1)C(=O)NO [Batimastat] (top concentration 46.0829 µM) ?
Out: 424

In: What would you report for N[S+](=O)([O-])c1cc(Cl)c(Cl)c([S+](N)(=O)[O-])c1 [Diclofenamide] (top concentration 46.0829 µM) ?
Out: 592

In: What would you report for CC(C)(C)c1cc(C(=O)O)c(NC(=O)Nc2ccc3[nH]ncc3c2)s1 [S6K-18] (top concentration 46.0829 µM) ?
Out: 426
